- System: MS2 coat protein
- test-method-notes: apparent KD of MS2 coat protein; designed switch direction (-1 OFF switch, 1 ON switch): -1; higher = weaker reporter binding
- condition-description: input ligand: none
readout-label: apparent KD of MS2 coat protein (nM)
Numbers only; they are read as nM.

residue-sequence	apparent KD of MS2 coat protein (nM)
AAUAAGGGAGGAUAUACAUGAGGAUCACCCAUGUUUGUAAUUUAAUUCGGGAGUAUUAGUAGAAGGCCCAAUAA [lam1] (Eterna round: R97, puzzle: Exclusion 3)	59.5
CAGGACAGAGGAUAUACAUAGAUACAGAUUCAUGUAGAACUACAUGAGGAUCACCCAUGUAGAAGGCUGACCUG [Fiskers Ex 2 - 4] (Eterna round: R96, puzzle: Exclusion 2)	31.5
AGCCAAGCAGGAUAUGCCCGUAAUAACAUGAGGAUCACCCAUGUGACCGAUUUAUGUUCUGCAGAAGGGCUUGGAA [LRO-Excl5-12-mod of Erxesoan mod by Eli Fisker] (Eterna round: R97, puzzle: Exclusion 5)	24.8
CUGCUCCGUGUAGGAUAUCCGUGCAACCAAUACGGAGAAGGACAUGAGGAUCACCCAUGUAUGUUAUUAUCACGUGAAGCGUCC [Design 24] (Eterna round: R96, puzzle: Exclusion NG 1)	24.3

Please look at the following sequence next.
Prompt line: Field request: apparent KD of MS2 coat protein | item: CUGAACCCGGUAGGAUAUAUUGUGGGCAAGCAUGGAACAACAUGAGGAUCACCCAUGUAAUUUAGGUAGAAGGGCCAAAAGAUU [Excl-NG2-LRO08] (Eterna round: R96, puzzle: Exclusion NG 2)
Response line: 55.3

* * *

- System: MS2 coat protein
- test-method-notes: apparent KD of MS2 coat protein; designed switch direction (-1 OFF switch, 1 ON switch): -1; higher = weaker reporter binding
- condition-description: input ligand: FMN 200 uM
readout-label: apparent KD of MS2 coat protein (nM)
Give the quantity in nM, number only.

See these solved cases before continuing.
residue-sequence	target-entity	observed
ACAUGAGGAUCACCCAUGUACACGUAAUGGCUCAUGUAGAGUGAGGAUAUGUGAGACGAACGAGAACAGAAGGCACAAGACAGG [Deportation 9 - Jieux - Exclusion NG 3] (Eterna round: R96, puzzle: Exclusion NG 3)	MS2 coat protein	29.1
CUUGUGUGAGGAUAUGAAUUACCUGGUCAAACAGGCUCCUGUCAGAAGGCACAUGAGGAUCACCCAUGUGGGCA [Dibilela] (Eterna round: R97, puzzle: Exclusion 4)	MS2 coat protein	121
AGCUGUGGCCGAGGAUAUCCACAUGAGGAUCACCCAUGUCGAUACCAGCGUAAGCUGGAUAUAAGGGAGAAGGCGGUCUCAGCA [Eli eng2 - 053] (Eterna round: R96, puzzle: Exclusion NG 2)	MS2 coat protein	6.2
GCGAGCUGAGGAUAUACAUGAGGAUCACCCAUGUAUUUUGGAAGACUGCCUCCUGCACGUAGAAGGCGGCUCUU [Eternabot (L2) Solution 35] (Eterna round: R97, puzzle: Exclusion 3)	MS2 coat protein	24.4
CGUUGGCGAGGAUAUACAUGAGGAUCACCCAUGUGAGAGAUACUAGUGAGGUCGAUUAGUAGAAGGCGCUGACG [Mat X3R4 m1] (Eterna round: R97, puzzle: Exclusion 3)	MS2 coat protein	949

Prompt line: If you can, please state the reported apparent KD of MS2 coat protein value of AAGCAUGGAGGAUAUACAUGAGGAUCACCCAUGUCCAGGUCCACGGGUAUUUUGUUGCGUAGAAGGCCAUGUAG [Eternabot (L2) Solution 21] (Eterna round: R97, puzzle: Exclusion 3) .
Response line: 242

Prompt line: Same for GGGCCUGGUGUAGGAUAUCGUGGGCGGUGUCGGCGAGAAGGACAUGAGGAUCACCCAUGUCCGGGCUCGGGUUCCCGGGCUUGG [second try -37.9 kcal and 14% A] (Eterna round: R96, puzzle: Exclusion NG 1)
Response line: 28.5

Prompt line: Thanks! And UUAAUAAUGUAAGGAUAUGCGUGGCGAAGCUAUGCAGAAGGUACAUGAGGAUCACCCAUGUGGUCCGUCUGCGUACAGAUGGAA [JL Eng1 1.08 mod] (Eterna round: R96, puzzle: Exclusion NG 1) ?
Response line: 756

Prompt line: Query CCAAGCUUAUUCAUUAACCACAUGAGGAUCACCCAUGUCUAGGCAAUUAUGACUUGCCCAUCAGGUGCUCGUCUUAU [Sensor-V1 #33] (Eterna round: R97, puzzle: Sensor, turn-off variant 1) next
Response line: 68.7

* * *

- System: MS2 coat protein
- test-method-notes: apparent KD of MS2 coat protein; designed switch direction (-1 OFF switch, 1 ON switch): -1; higher = weaker reporter binding
- condition-description: Eterna round: R95; input ligand: FMN 200 uM
readout-label: apparent KD of MS2 coat protein (nM)
Reply with just the number (in nM).

Please review the following examples before continuing.
residue-sequence	target-entity	endpoint-unit	apparent KD of MS2 coat protein
AGUAACCGUCACGAAAGUGAUGGUUACACAAGCAAAUGUACAUGAGGAUCACCCAUGUCCUCGUUUGCUCGUCUUAU [Sensor 3 - 49] (puzzle: Sensor v3, turn-off variant 2)	MS2 coat protein	nM	26.9
AAUUAACAAGCAGGAUCCUACAUGAGGAUCACCCAUGUGCUCGUCUUAUAAAGUACUAUCACGAAAGUGAUAGUACA [Mat - Sensor v3 - turn-off var 1 - Eli Mod - D74] (puzzle: Sensor v3, turn-off variant 1)	MS2 coat protein	nM	224
UAAAAUAGUGUGAGGAUAUGCUGGUCCUUGGAUCAGCAGAAGGCACAUGAGGAUCACCCAUGUAGAUAAUAAUA [Mat - Exclusion 4 - JL Mod - D26] (puzzle: Brourd's mod of Exclusion 4)	MS2 coat protein	nM	189

Prompt line: Could you share which apparent KD of MS2 coat protein value was measured for GAUUAUGCGAGCUUUAGGGACAUGAGGAUCACCCAUGUUCGUCUUGUUGAUCUAGGUACGCUAACAUACCUAAAUCU [JMF 6] (puzzle: Sensor v3, turn-off variant 1) ?
Response line: 19.7

Prompt line: Please answer likewise for GAUUAUGCGAGCUUUAGGGACAUGAGGAUCACCCAUGUUCGUCUUAUUAGUCUGGGUACACUAACAUACCUAAAUCU [JMF 21] (puzzle: Sensor v3, turn-off variant 1)
Response line: 26.9

* * *

Listing: apparent KD of MS2 coat protein of selected sequences
- Test system: MS2 coat protein
- test-method-notes: apparent KD of MS2 coat protein; designed switch direction (-1 OFF switch, 1 ON switch): -1; higher = weaker reporter binding
- condition-description: input ligand: FMN 200 uM
Output spec: scalar in nM, unitless text.

Here are 8 sequences together with their reported answers.
residue-sequence	apparent KD of MS2 coat protein (nM)
CCCUCACAUGAGGAUCACCCAUGUCAGGAUAUCUCAGUGCGUCCACACGGACACAUCAAGAGAAGGGACAAAAC [Maceedesbi] (Eterna round: R97, puzzle: Exclusion 1)	26.3
AUAAUGUGAGGAUAUCGAGACUACUGCUUCGGCAGUAGUCUCGAGAAGGCACAUGAGGAUCACCCAUGUGAUCA [E4/2-A1] (Eterna round: R97, puzzle: Exclusion 4)	56.6
GGGCCCGGAGGAUAUACAAUGGGUUUGGGAAACCGGGCCCUACAUGAGGAUCACCCAUGUAGAAGGCCGGGCCC [-41, -38.9 kcal A 24%, 5b,0] (Eterna round: R97, puzzle: Exclusion 2)	39.9
GUCACAUGGACAUAGGAUCACAUGAGGAUCACCCAUGUGACUAACAAGCUUUUUGUUCGUCUUAUGUCUAUGUGAAA [Stov1/16-B1] (Eterna round: R97, puzzle: Sensor, turn-off variant 1)	13.5
ACAUGAGGAUCACCCAUGUGACAAGAAUGGCUGACACAGAGAUAGGAUAUAGGUGCAUAUCUAACCUAGAAGGGUCAUGACUGG [Deportation 76 - Jieux - Exclusion NG 3] (Eterna round: R96, puzzle: Exclusion NG 3)	40.2
UCUUGUUGUCCUUGAUAAUACAUGAGGAUCACCCAUGUUAUUUUGAUUAUGAUGUGUAAGUUUGUUGCUCGUUUUAU [JR_STOV1_Sub069] (Eterna round: R97, puzzle: Sensor, turn-off variant 1)	27.7
GCAGUGUCAGGAUAUUCGAGUUCGAGUGAAAGCUUGAGCUUGAAGAAGGGACAUGAGGAUCACCCAUGUGCUGU [-28.7, -27.7 kcal, A 27%, 1bis-(ca)1bis] (Eterna round: R97, puzzle: Exclusion 4)	117
GGGUACAAGCUAAGAUCCUACAUGAGGAUCACCCAUGUGGUCCGGUGACGUGAGUCACCGGACUUAGCUCGUCUUGU [salish99_S_TOV1_R5_003] (Eterna round: R97, puzzle: Sensor, turn-off variant 1)	59.3

Prompt line: Lab note: need apparent KD of MS2 coat protein with MS2 coat protein for entry GUUGCUACUGAGGAUAUUAUUUUACUCGACUGAUAAGAAGGCAGUACAUGAGGAUCACCCAUGUGGGUAGCCAG [Polaris16] (Eterna round: R97, puzzle: Exclusion 6) , please look it up.
Response line: 64.7
